- System: MDA-MB-231
- procedure text: In vitro inhibition, CellTiter-Glo (CTG) assay
- Format: cell-based
- stated conditions: Homo sapiens, MDA-MB-231, 72 hr exposure
pIC50: −log10 of the molar value.
Here, each record is paired with measured pIC50 data.

- compound: "CCOC(=O)COP(=O)(N[C@@H](CC(C)C)C(=O)OCC)OC[C@H]1O[C@@H](n2ccc(N)nc2=O)C(F)(F)[C@@H]1O (single isomer, unassigned) [108 (diastereomer 1)]"
  assay target: "MDA-MB-231"
  pIC50: "5.00 to 6.00"
- compound: "Cn1c(COP(=O)(NCc2ccccc2)OC[C@H]2O[C@@H](n3ccc(N)nc3=O)C(F)(F)[C@@H]2O)cnc1[N+](=O)[O-] (single isomer, unassigned) [112 (diastereomer 1)]"
  assay target: "MDA-MB-231"
  pIC50: "4.00 to 5.00"

Any idea what pIC50 was measured for CC(C)(CO)C(=O)SCCOP(=O)(O)OC[C@H]1O[C@@H](n2ccc(N)nc2=O)C(F)(F)[C@@H]1O [Compound 118] ?
5.00 to 6.00

// next record COC(=O)[C@H](CCCCNP1(=O)OC[C@H]2O[C@@H](n3ccc(N)nc3=O)C(F)(F)[C@@H]2O1)NC(=O)OC(C)(C)C (single isomer, unassigned) [106 (diastereomer 1)]
4.00 to 5.00

// next record Nc1ccn([C@@H]2O[C@H](COP(=O)(OCc3ccc([N+](=O)[O-])o3)OCc3ccc([N+](=O)[O-])o3)[C@@H](O)C2(F)F)c(=O)n1 [Compound 114]
4.00 to 5.00

---

Here, each record is paired with measured pIC50 data.
- System: NCI-H69
- procedure text: In vitro inhibition, CellTiter-Glo (CTG) assay
- Type: cell-based
- stated conditions: Homo sapiens, NCI-H69, 72 h, 72 hr exposure
pIC50: −log10 of the molar value.

- compound: "CC(C)(CO)C(=O)SCCOP(=O)(O)OC[C@H]1O[C@@H](n2ccc(N)nc2=O)C(F)(F)[C@@H]1O [Compound 118]"
  pIC50: "> 6.00"

Any idea what pIC50 was measured for CC(C)OP1(=O)OC[C@H]2O[C@@H](n3ccc(N)nc3=O)C(F)(F)[C@@H]2O1 (single isomer, unassigned) [102 (diastereomer 2)] ?
4.00 to 5.00

// next record COC(=O)[C@H](CCCCNP1(=O)OC[C@H]2O[C@@H](n3ccc(N)nc3=O)C(F)(F)[C@@H]2O1)NC(=O)OC(C)(C)C (single isomer, unassigned) [106 (diastereomer 1)]
4.00 to 5.00

// next record CC(C)(C)C(=O)SCCOP1(=O)OC[C@H]2O[C@@H](n3ccc(N)nc3=O)C(F)(F)[C@@H]2O1 (single isomer, unassigned) [104 (diastereomer 1)]
5.00 to 6.00

// next record Nc1ccn([C@@H]2O[C@H](COP(=O)(O)NCc3ccccc3)[C@@H](O)C2(F)F)c(=O)n1 [Compound 117]
> 6.00

// next record Nc1ccn([C@@H]2O[C@@H]3COP(=O)(O)O[C@H]3C2(F)F)c(=O)n1 [Compound 107]
5.00 to 6.00

---

Here, each record is paired with measured pIC50 data.
- System: MDA-MB-231
- procedure text: In vitro inhibition, CellTiter-Glo (CTG) assay
- Type: cell-based
- stated conditions: Homo sapiens, MDA-MB-231, 72 hr exposure
pIC50: −log10 of the molar value.

Consider the following illustrative entries.
- molecule: "CC(C)OC(=O)[C@H](C)NP1(=O)OC[C@H]2O[C@@H](n3ccc(N)nc3=O)C(F)(F)[C@@H]2O1 (single isomer, unassigned) [103 (diastereomer 1)]"
  measured quantity: "pIC50"
  observed value: "4.00 to 5.00"
- molecule: "Nc1ccn([C@@H]2O[C@H](COP(=O)(O)NCc3ccccc3)[C@@H](O)C2(F)F)c(=O)n1 [Compound 117]"
  measured quantity: "pIC50"
  observed value: "5.00 to 6.00"

Any idea what pIC50 was measured for CCOC(=O)[C@H](CC(C)C)NP(=O)(O)OC[C@H]1O[C@@H](n2ccc(N)nc2=O)C(F)(F)[C@@H]1O [Compound 115] ?
4.00 to 5.00

---

- System: HepG2
- procedure text: In vitro inhibition, CellTiter-Glo (CTG) assay
- Type: cell-based
- stated conditions: Homo sapiens, HepG2, 72 h, 72 hr exposure
measured quantity: IC50

- compound: "COC(=O)[C@H](CCCCNP1(=O)OC[C@H]2O[C@@H](n3ccc(N)nc3=O)C(F)(F)[C@@H]2O1)NC(=O)OC(C)(C)C (single isomer, unassigned) [106 (diastereomer 1)]"
  IC50: "< 1000 nM"
- compound: "CC(C)OP(=O)(OC[C@H]1O[C@@H](n2ccc(N)nc2=O)C(F)(F)[C@@H]1O)OC(C)C [Compound 119]"
  IC50: "10000 to 100000 nM"
- compound: "CC(C)(CO)C(=O)SCCOP(=O)(O)OC[C@H]1O[C@@H](n2ccc(N)nc2=O)C(F)(F)[C@@H]1O [Compound 118]"
  IC50: "< 1000 nM"
- compound: "CC(C)OC(=O)[C@@H](C)NP1(=O)OC[C@H]2O[C@@H](n3ccc(N)nc3=O)C(F)(F)[C@@H]2O1 (single isomer, unassigned) [101 (diastereomer 2)]"
  IC50: "1000 to 10000 nM"
- compound: "CCOC(=O)[C@H](CC(C)C)NP(=O)(O)OC[C@H]1O[C@@H](n2ccc(N)nc2=O)C(F)(F)[C@@H]1O [Compound 115]"
  IC50: "< 1000 nM"
- compound: "COC(=O)[C@H](CC(C)C)NP(=O)(N[C@@H](CC(C)C)C(=O)OC)OC[C@H]1O[C@@H](n2ccc(N)nc2=O)C(F)(F)[C@@H]1O [Compound 109]"
  IC50: "1000 to 10000 nM"

Any idea what IC50 was measured for CC(C)C(=O)OC[C@@H](C)NP1(=O)OC[C@H]2O[C@@H](n3ccc(N)nc3=O)C(F)(F)[C@@H]2O1 (single isomer, unassigned) [105 (diastereomer 1)] ?
< 1000 nM

// next record CCOC(=O)COP(=O)(N[C@@H](CC(C)C)C(=O)OCC)OC[C@H]1O[C@@H](n2ccc(N)nc2=O)C(F)(F)[C@@H]1O (single isomer, unassigned) [108 (diastereomer 1)]
< 1000 nM

// next record CC(C)(C)C(=O)SCCOP1(=O)OC[C@H]2O[C@@H](n3ccc(N)nc3=O)C(F)(F)[C@@H]2O1 (single isomer, unassigned) [104 (diastereomer 1)]
< 1000 nM

// next record CC(C)OP1(=O)OC[C@H]2O[C@@H](n3ccc(N)nc3=O)C(F)(F)[C@@H]2O1 (single isomer, unassigned) [Compound 102 (diastereomer 1)]
1000 to 10000 nM

// next record CC(C)OC(=O)[C@H](C)NP1(=O)OC[C@H]2O[C@@H](n3ccc(N)nc3=O)C(F)(F)[C@@H]2O1 (single isomer, unassigned) [103 (diastereomer 1)]
< 1000 nM

// next record Nc1ccn([C@@H]2O[C@H](COP(=O)(O)NCc3ccccc3)[C@@H](O)C2(F)F)c(=O)n1 [Compound 117]
< 1000 nM

// next record Nc1ccn([C@@H]2O[C@@H]3COP(=O)(O)O[C@H]3C2(F)F)c(=O)n1 [Compound 107]
< 1000 nM

// next record CCCC(CCC)C(=O)Nc1ccn([C@@H]2O[C@@H]3COP(=O)(N[C@H](C)C(=O)OC(C)C)O[C@H]3C2(F)F)c(=O)n1 (single isomer, unassigned) [116 (diastereomer 1)]
10000 to 100000 nM

---

- Test system: BxPC-3
- procedure text: In vitro inhibition, CellTiter-Glo (CTG) assay
- Type: cell-based
- stated conditions: Homo sapiens, BXPC-3, 72 h, 72 hr exposure
measured quantity: IC50

Consider the following illustrative entries.
- compound: "CCOC(=O)COP(=O)(N[C@@H](CC(C)C)C(=O)OCC)OC[C@H]1O[C@@H](n2ccc(N)nc2=O)C(F)(F)[C@@H]1O (single isomer, unassigned) [108 (diastereomer 1)]"
  measured quantity: "IC50"
  observed value: "1 to 10 µM"
- compound: "CC(C)OP(=O)(OC[C@H]1O[C@@H](n2ccc(N)nc2=O)C(F)(F)[C@@H]1O)OC(C)C"
  measured quantity: "IC50"
  observed value: "10 to 100 µM"
- compound: "COC(=O)[C@H](CC(C)C)NP(=O)(N[C@@H](CC(C)C)C(=O)OC)OC[C@H]1O[C@@H](n2ccc(N)nc2=O)C(F)(F)[C@@H]1O"
  measured quantity: "IC50"
  observed value: "10 to 100 µM"
- compound: "CCCC(CCC)C(=O)Nc1ccn([C@@H]2O[C@@H]3COP(=O)(N[C@H](C)C(=O)OC(C)C)O[C@H]3C2(F)F)c(=O)n1 (single isomer, unassigned) [116 (diastereomer 1)]"
  measured quantity: "IC50"
  observed value: "10 to 100 µM"

Any idea what IC50 was measured for CC(C)OC(=O)[C@@H](C)NP1(=O)OC[C@H]2O[C@@H](n3ccc(N)nc3=O)C(F)(F)[C@@H]2O1 (single isomer, unassigned) [101 (diastereomer 2)] ?
10 to 100 µM

// next record Cn1c(COP(=O)(NCc2ccccc2)OC[C@H]2O[C@@H](n3ccc(N)nc3=O)C(F)(F)[C@@H]2O)cnc1[N+](=O)[O-] (single isomer, unassigned) [112 (diastereomer 1)]
10 to 100 µM

// next record CC(C)C(=O)OC[C@@H](C)NP1(=O)OC[C@H]2O[C@@H](n3ccc(N)nc3=O)C(F)(F)[C@@H]2O1 (single isomer, unassigned) [105 (diastereomer 1)]
< 1 µM

// next record `CC(C)(CO)C(=O)SCCOP(=O)(O)OC[C@H]1O[C@@H](n2ccc(N)nc2=O)C(F)(F)[C@@H]1O`
< 1 µM
